Test: clinical
Conditions: human, in vivo, iv, CL
Observed property: clearance (mL/min/kg)
Kindly answer with a numeric value in mL/min/kg, unit omitted.

Measured clearance of NS(=O)(=O)c1cc(C(=O)O)cc(N2CCCC2)c1Oc1ccccc1 [PIRETANIDE] : 3.1

Measured clearance of NC(=O)CN1CC(O)CC1=O (stereo unspecified) : 1.8

Measured clearance of Cc1cc(NC(=O)C2=C(O)c3ccccc3S(=O)(=O)N2C)no1 : 0.07

Measured clearance of Nc1ccc(O)c(C(=O)O)c1 : 9.3

Measured clearance of CC(C)(C)NCC(O)COc1cccc2c1CC(O)C(O)C2 (stereo unspecified) : 2.9

Measured clearance of CCc1nc(N)nc(N)c1-c1ccc(Cl)cc1 : 0.052

These entries and their values trace back to ChEMBL document CHEMBL1614632.
